assay: Bioavailability in the Male Rat, AUC method; assay type: in vivo, Male adult rats of the Sprague-Dawley strain; conditions: blood, 4 umol/kg, 4 μmol/kg id and iv, up to 4 h, extrapolated to infinity, read-out: Bioavailability measured by the AUC-method F%, Rat
measured.property: bioavailability (%)
The reply should be a number in %, with the unit left off.

Per the record, [O-][S+](Cc1cc(OCC2CC2)ccn1)c1nc2cc(F)ccc2[nH]1 (stereo not shown) [Example 1] has bioavailability of 82

====

experiment: Chemical stability in aqueous buffer solution; assay type: physicochemical; conditions: pH 7, 37°C, low concentration, read-out: Chemical stability at pH 7, half-life (t 1/2) (converted)
measured.property: half-life
Quote the value and follow it with the unit of measurement.

Per the record, [O-][S+](Cc1cc(OCC2CC2)ccn1)c1nc2cc(F)ccc2[nH]1 (stereo not shown) has half-life of 23 h
